- target-under-test: FAAH (Homo sapiens)
- test-summary: Assay Method 1: FAAH assay, 3H-anandamide hydrolysis in homogenate of cells transfected with human FAAH
- measurement-conditions: cell homogenate, 3H-AEA 80 nM, 1 h at rt, average of results
Where a name gives a salt, the structure may show the parent alone.
I'd be grateful if you could share measured IC50 for these entries.

Solved entries (count: 10):
INSERT INTO results (molecule, metric, measurement) VALUES
  ('O=C(Nc1cccnc1)N1CC(CCOc2ccc(OC(F)(F)F)cc2)C1 [Example 30]', 'IC50', '> 10000 nM'),
  ('O=C(Nc1cccnc1)N1CC(COc2cccc(OC(F)(F)F)c2)C1 [Example 6]', 'IC50', '1100 nM'),
  ('O=C(Nc1cccnc1)N1CC(COc2ccc3c(c2)CCCC3)C1 [Example 13]', 'IC50', '2500 nM'),
  ('CS(=O)(=O)c1ccc(Oc2cccc(OCCC3CN(C(=O)Nc4cccnc4)C3)c2)cc1 [Example 27]', 'IC50', '15 nM'),
  ('O=C(Nc1cccnc1)N1CC(CCOc2ccc3ccccc3n2)C1 [Example 36]', 'IC50', '200 nM'),
  ('CCCCOc1cccc(OCC2CN(C(=O)Nc3cccnc3)C2)c1 [Example 12]', 'IC50', '300 nM'),
  ('C#Cc1cccc(OCCC2CN(C(=O)Nc3cccnc3)C2)c1 [Example 37, trifluoroacetate salt]', 'IC50', '140 nM'),
  ('O=C(Nc1cccnc1)N1CCC(CCc2ccc3c(c2)OC(F)(F)O3)C1 (stereo not drawn) [Example 77]', 'IC50', '5000 nM'),
  ('O=C(Nc1cccc2nonc12)N1CCC(Cc2ccc3c(c2)OC(F)(F)O3)C1 (stereo not drawn) [Example 73]', 'IC50', '> 10000 nM'),
  ('O=C(Nc1cccnc1)N1CC(COc2ccc3ccccc3n2)C1 [Example 9]', 'IC50', '1300 nM');

Items follow; give IC50 for each.
1. O=C(Nc1cnccc1Cl)N1CCC(CCOc2ccccc2)C1 (stereo not drawn) [Example 57]
2. O=C(Nc1ccc(-n2nccn2)nc1)N1CC(CCOc2cccc(Oc3ccc(Cl)cc3)c2)C1 [Example 39]
3. O=C(Nc1cnccc1Cl)N1CC(CCOCc2ccc(Cl)c(Cl)c2)C1 [Example 67]
4. O=C(Nc1cnccc1Cl)N1CCC(CCOc2ccc(Cl)c(Cl)c2)C1 (stereo not drawn) [Example 58]

1: 3000 nM; 2: 13 nM; 3: 39 nM; 4: 300 nM

* * *

- target-under-test: FAAH (Homo sapiens, UniProt O00519)
- test-summary: Assay Method 1: FAAH assay, 3H-anandamide hydrolysis in homogenate of cells transfected with human FAAH
- measurement-conditions: cell homogenate, 3H-AEA 80 nM, 1 h at rt, average of results
Counter-ions that a name gives are not always drawn.
I'd be grateful if you could share measured pIC50 for these entries.
One number for each entry, as −log10 of the molar value.

INSERT INTO measurements (compound, metric, measurement) VALUES
  ('O=C(Nc1cccc2nccn12)N1CCC(Cc2cccc(Oc3ccc(F)cc3)c2)C1 (centres unmarked)', 'pIC50', 6.40),
  ('O=C(Nc1ccc2nccn2c1)N1CC(CCOc2cccc(Oc3ccc(Cl)cc3)c2)C1', 'pIC50', 5.52),
  ('O=C(Nc1noc2ccccc12)N1CC(CCOc2cccc(Oc3ccc(Cl)cc3)c2)C1', 'pIC50', 8.40),
  ('O=C(Nc1cnccc1Cl)N1CC(CCOCc2ccccc2)C1', 'pIC50', 6.03),
  ('O=C(Nc1cccnc1)N1CC(CCOCc2ccc(Cl)c(Cl)c2)C1 [Example 68, trifluoroacetate salt]', 'pIC50', 6.07),
  ('O=C(Nc1cccnc1)N1CC(CCOc2cccc(OC(F)(F)F)c2)C1', 'pIC50', 5.52);

Items follow; give pIC50 for each.
1. O=C(Nc1cccnc1)N1CC(CCOc2cccc(Oc3ccc(Cl)cc3)c2)C1
2. O=C(Nc1cccnc1)N1CC(CCOc2ccc3ccccc3c2)C1 [Example 35, trifluoroacetate salt]

1. 7.89
2. 6.80

Which value of pIC50 has been reported for O=C(Nc1cnccc1Cl)N1CCC(COc2ccc(Cl)c(Cl)c2)C1 (centres unmarked) in the records?
8.05

* * *

- target-under-test: rat FAAH (Rattus norvegicus, UniProt P97612)
- Construct: crude homogenate
- Sequence (P97612 whole entry): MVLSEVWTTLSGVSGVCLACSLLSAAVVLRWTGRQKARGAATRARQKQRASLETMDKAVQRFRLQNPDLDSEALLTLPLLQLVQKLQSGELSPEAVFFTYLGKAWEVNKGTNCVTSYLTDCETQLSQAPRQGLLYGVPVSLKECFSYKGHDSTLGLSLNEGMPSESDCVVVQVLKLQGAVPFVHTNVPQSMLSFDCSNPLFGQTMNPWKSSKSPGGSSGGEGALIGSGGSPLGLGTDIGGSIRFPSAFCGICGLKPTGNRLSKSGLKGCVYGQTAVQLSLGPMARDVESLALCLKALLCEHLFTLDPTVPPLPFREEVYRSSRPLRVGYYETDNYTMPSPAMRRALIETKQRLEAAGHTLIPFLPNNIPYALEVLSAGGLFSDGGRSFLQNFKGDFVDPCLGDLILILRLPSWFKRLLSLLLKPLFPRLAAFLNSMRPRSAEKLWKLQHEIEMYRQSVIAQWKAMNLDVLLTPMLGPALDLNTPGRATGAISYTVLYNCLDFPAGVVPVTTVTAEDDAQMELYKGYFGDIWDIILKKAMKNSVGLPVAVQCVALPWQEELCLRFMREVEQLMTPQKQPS
- test-summary: Assay Method 2: FAAH assay, 3H-anandamide hydrolysis in homogenate of cells transfected with rat FAAH
- measurement-conditions: cell homogenate, 3H-AEA 80 nM, 1 h at rt, average of results
pIC50: −log10 of the molar value.
I'd be grateful if you could share measured pIC50 for these entries.

Solved entries (count: 2):
INSERT INTO measurements (molecule, measurement) VALUES
  ('O=C(Nc1cccnc1)N1CC(COc2ccc(Oc3ccccc3)cc2)C1 [Example 16]', '< 5.00'),
  ('O=C(Nc1cnccc1Cl)N1CCC(CCOc2ccccc2)C1 (stereo not shown) [Example 57]', '< 5.00');

Items follow; give pIC50 for each.
1. O=C(Nc1cccnc1)N1CCC(CCOc2cccc(OC(F)(F)F)c2)C1 (stereo not shown) [Example 59]
2. O=C(Nc1cccnc1)N1CC(COc2ccc3cccnc3c2)C1 [Example 14]

["< 5.00", "< 5.00"]

* * *

- target-under-test: FAAH (Homo sapiens)
- Sequence (O00519 1-579): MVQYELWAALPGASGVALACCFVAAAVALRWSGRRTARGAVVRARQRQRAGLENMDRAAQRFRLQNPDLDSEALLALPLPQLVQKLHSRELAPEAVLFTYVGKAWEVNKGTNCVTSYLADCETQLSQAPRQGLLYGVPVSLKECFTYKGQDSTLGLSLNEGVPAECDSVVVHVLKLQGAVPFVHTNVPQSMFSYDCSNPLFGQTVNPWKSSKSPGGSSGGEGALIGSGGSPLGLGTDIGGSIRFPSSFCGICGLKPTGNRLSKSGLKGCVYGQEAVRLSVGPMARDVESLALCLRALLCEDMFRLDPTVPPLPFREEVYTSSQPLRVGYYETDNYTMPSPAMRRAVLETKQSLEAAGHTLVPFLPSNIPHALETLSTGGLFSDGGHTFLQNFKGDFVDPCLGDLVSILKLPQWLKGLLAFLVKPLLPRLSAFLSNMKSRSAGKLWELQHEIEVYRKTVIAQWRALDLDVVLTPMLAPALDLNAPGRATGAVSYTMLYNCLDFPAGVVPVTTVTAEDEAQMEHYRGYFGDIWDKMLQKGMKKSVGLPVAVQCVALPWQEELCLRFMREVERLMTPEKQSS
- test-summary: Assay Method 1: FAAH assay, 3H-anandamide hydrolysis in homogenate of cells transfected with human FAAH
- measurement-conditions: cell homogenate, 3H-AEA 80 nM, 1 h at rt, average of results
I'd be grateful if you could share measured pIC50 for these entries.
Give bare numbers, as −log10 of the molar value.

Solved entries (count: 3):
INSERT INTO assay_data (compound, measurement) VALUES
  ('O=C(Nc1cccnc1)N1CC(COc2cccc(Oc3ccc(Cl)cc3)c2)C1', 6.92),
  ('O=C(Nc1cnccc1Cl)N1CCC(CCc2ccc3c(c2)OC(F)(F)O3)C1 (stereo not shown)', 6.64),
  ('CS(=O)(=O)c1ccc(Oc2cccc(OCC3CN(C(=O)Nc4cccnc4)C3)c2)cc1', 7.24);

Turning to the following compound.
Which value of pIC50 has been reported for "O=C(Nc1cccnc1)N1CC(COc2ccc3ccccc3c2)C1" in the records?
6.00

* * *

I'd be grateful if you could share measured IC50 for these entries.
- target-under-test: rat FAAH (Rattus norvegicus)
- Construct: crude homogenate
- test-summary: Assay Method 2: FAAH assay, 3H-anandamide hydrolysis in homogenate of cells transfected with rat FAAH
- measurement-conditions: cell homogenate, 3H-AEA 80 nM, 1 h at rt, average of results

Solved entries (count: 3):
INSERT INTO results (compound, metric, measurement) VALUES
  ('O=C(Nc1cnccc1Cl)N1CC[C@@H](COc2cccc(Oc3ccc(Cl)cc3)c2)C1', 'IC50', '2 nM'),
  ('O=C(Nc1cccnc1)N1CC(COc2ccc(C(F)(F)F)c(Cl)c2)C1', 'IC50', '300 nM'),
  ('O=C(Nc1cccnc1)N1CC(COc2ccc(Br)cc2)C1', 'IC50', '> 10000 nM');

Items follow; give IC50 for each.
1. O=C(Nc1cccnc1)N1CC(COc2ccc3c(c2)OCO3)C1
2. O=C(Nc1cccnc1)N1CC(COc2ccc(OCc3ccccc3)cc2)C1

["> 10000 nM", "> 10000 nM"]

Items follow; give IC50 for each.
1. O=C(Nc1cccnc1)N1CC(COc2ccc3cccc(Cl)c3n2)C1
2. O=C(Nc1cccnc1)N1CC(COc2ccc3ccccc3n2)C1
3. O=C(Nc1cccnc1)N1CCC(CCOc2ccc(OC(F)(F)F)cc2)C1 (stereo not drawn)
4. O=C(Nc1cccnc1)N1CC(CCOc2ccc3ccccc3n2)C1

1: 500 nM; 2: 1300 nM; 3: > 10000 nM; 4: 430 nM
